- Test system: RAW264.7
- Protocol Summary: cells
- Test Settings: Mus musculus, RAW264.7, 24 h
- Description: Anti-inflammatory activity against mouse RAW264.7 cells assessed as inhibition of LPS-induced NO production measured after 24 hrs incubation by Griess analysis
Hi! Could you tag entries with IC50 below 10 µM as Condition met, and those at or above as Condition not met? Much appreciated.

COc1ccc2c(c1)c(CC(=O)O)c(C)n2C(=O)c1ccc(Cl)cc1 [INDOMETHACIN] = Condition not met

Problem: Hi there! Is IC50 for O=C(OCc1c(-c2ccccc2)no[n+]1[O-])c1nc(CCl)n(-c2ccccc2F)n1 below 10 µM, do you know?
Result: Condition not met

Problem: Also, O=C(OCc1c(-c2ccccc2)no[n+]1[O-])c1nc(CCl)n(-c2ccccc2C(F)(F)F)n1 please.
Result: Condition not met

Problem: Also, Cc1cccc(-n2nc(C(=O)OCc3c(-c4ccccc4)no[n+]3[O-])nc2CCl)c1 please.
Result: Condition met

Problem: Also, [O-][n+]1ccno1 please.
Result: Condition not met
